Cited source for all entries: PubChem BioAssay

Assay: binders of probe aFGF10 on microarray, primary screen, stem cell growth factor project, biochemical, small-molecule microarray, fluorescence 635/667 (AID 1071);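 note: score merges 667 nm spot intensity and signal to noise from triplicate slides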
Conditions: higher = more signal
Output schema: class label derived from composite z-score. Mapping: LOW (below 0.4), MID (0.4 to below 0.7), HIGH (0.7 or more)

molecule	label
CO[C@H]1O[C@H](CO)[C@@H](OC(=O)Nc2cccc(F)c2)[C@H](OC(=O)Nc2ccc3c(c2)OCO3)[C@@H]1OC(=O)Nc1ccc2c(c1)OCO2	HIGH
C=CC[C@]1(C(=O)NCC(O)CO)N=C(c2ccc(OCCCO)cc2)O[C@H]1c1ccccc1CN=[N+]=[N-] (some centres undefined)	LOW
CCCCC(=C=CC[C@H](O)c1cccc(OCCO)c1)C[C@H](O)c1cc(Cl)cc(Cl)c1O	MID

Ask | Lab note: sort CC1C2C(CCCO)=CC(C3C(=O)N(C)C(=O)C23)N1Cc1cccc(OC(F)(F)F)c1 (centres undefined) into the matching composite z-score band.
Reply | MID

Ask | Lab note: sort `CC(C)N1C(=O)[C@@]2(Cc3ccccc31)c1ccccc1C(=O)N(Cc1ccccc1C(F)(F)F)[C@H]2c1ccc(CO)cc1` into the matching composite z-score band.
Reply | LOW

Ask | Lab note: sort `C=C(C(=O)CC[C@@H](OC(=O)c1ccccc1-c1ccccc1C(=O)O)c1ccc(OCCO)cc1)C(C)C` into the matching composite z-score band.
Reply | HIGH

Ask | Lab note: sort CN1C(=O)C2C=CC(C(O)c3ccc(I)cc3)N(N(c3ccccc3)c3ccccc3)C2C1=O (centres undefined) into the matching composite z-score band.
Reply | LOW

Ask | Lab note: sort `C=CCOC(=O)[C@H]1[C@@H]2C(=O)O[C@@H](c3ccccc3)[C@@H](c3ccccc3)N2[C@@H](c2ccc(OCCOC(=O)[C@@H]3C[C@@H]4C(=O)N[C@@H](Cc5ccccc5)C(=O)N4[C@@H]3c3ccc(O)cc3)cc2)[C@]12C(=O)Nc1ccc(I)cc12` into the matching composite z-score band.
Reply | MID

Ask | Lab note: sort `COC(=O)[C@@]1(Cc2ccc(F)cc2)[C@H]2c3cc(C(=O)N(C)C)n(CCF)c3C[C@H]2CN1C(=O)c1ccccc1` into the matching composite z-score band.
Reply | MID

Ask | Lab note: sort `C=CCNC(=O)[C@@H]1[C@H]2C(=O)O[C@H](c3ccccc3)[C@H](c3ccccc3)N2[C@H](c2ccc(O)cc2)[C@@]12C(=O)N(C(=O)OCCOC)c1ccc(C#CCC(C(=O)OC)C(=O)OC)cc12` into the matching composite z-score band.
Reply | HIGH

Ask | Lab note: sort `COCCCNC(=O)[C@@]1(Cc2ccccc2I)c2ccccc2C(=O)N(C2CCCCC2)[C@H]1c1ccc(CO)cc1` into the matching composite z-score band.
Reply | MID

Ask | Lab note: sort `COCCCNC(=O)[C@@]1(Cc2ccccc2I)c2ccccc2C(=O)N(Cc2ccccc2C(F)(F)F)[C@H]1c1ccc(CO)cc1` into the matching composite z-score band.
Reply | LOW

====

Assay: RPMI8226 myeloma cell viability, profiling panel, resazurin fluorescence, basal, 24 h, PK04 Diversity Set (AID 1180);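 note: RPMI8826 multiple myeloma cell line at 5000 cells per well; test concentration not given here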
Conditions: higher = more signal
quantityName: z-score
One number for each entry.

Here's what some known entries look like.
compound	z-score
COC(=O)[C@@]1(Cc2ccccc2)[C@H]2c3cc(C(=O)N(C)C)n(Cc4ccc(Cl)c(C(F)(F)F)c4)c3C[C@H]2CN1C(=O)c1ccccc1	-2.95
C=C(/C=C\CNS(=O)(=O)c1ccc(C)cc1)[C@H](O)[C@H]1CCCN1S(=O)(=O)c1ccccc1[N+](=O)[O-]	-0.851

# per-item lookup of z-score; items listed below
1. COC(=O)C1=CC(CCCO)=CC(c2ccc(CN3CCCC3)cc2)N(C)C=C1C(=O)OC (centres undefined)
2. CCCCCCc1nc(Cc2cc(OC)c(OC)c(OC)c2)c(C)c2c1[Si](C(C)C)(C(C)C)OC2
3. O=C1NC(=O)C2C1C=CC(C(O)C(O)CO)N2Nc1ccccn1 (centres undefined)
4. CC(C)(C)OC(=O)CC[C@]1(C(N)=O)N=C(c2ccc(OCCCO)cc2)O[C@H]1c1ccccc1N=[N+]=[N-]
5. CCCCN1CC=CC23O[C@@H]4/C=C\CCC(C)OC(=O)C4[C@H]2C(=O)N(CCO)[C@@H]3C1=O (some centres undefined)
6. CN(C)CCCCNC(=O)[C@H]1C[C@H]2C(=O)N[C@@H](CCCCN(C)C)C(=O)N2[C@H]1c1ccc(O)cc1
7. C=CC[C@H](O)c1ccc(O)c(F)c1

Reply |
1: 0.154; 2: 0.556; 3: -0.885; 4: 0.596; 5: 0.82; 6: 1.82; 7: -0.0926

# per-item lookup of z-score; items listed below
1. CC1CC/C=C\[C@H]2OC34C=CCN(CCN5CCOCC5)C(=O)[C@H]3N(C(CO)C(C)C)C(=O)[C@@H]4C2C(=O)O1 (some centres undefined)
2. CC(C)N1C(=O)[C@@]2(Cc3ccccc31)c1ccccc1C(=O)N(Cc1ccccc1C(F)(F)F)[C@H]2c1ccc(CO)cc1
3. C=C[C@@H](CO)NS(=O)(=O)c1ccc(Br)cc1
4. C=CCOC(=O)[C@@H]1[C@H]2C(=O)O[C@H](c3ccccc3)[C@H](c3ccccc3)N2[C@H](c2ccc(OCCOC(=O)[C@@H]3C[C@@H]4C(=O)N[C@@H](CC(C)C)C(=O)N4[C@@H]3c3ccc(O)cc3)cc2)[C@@]12C(=O)Nc1ccc(I)cc12
5. O=C(NC1CC1)[C@@H]1c2ccccc2C(=O)N(C2CCCCC2)[C@H]1c1ccc(CO)cc1

Reply |
[-0.465, 0.566, 0.867, 0.676, -0.166]
